studyTarget: GCase (Homo sapiens)
Construct: endogenous in cells; host or cells: HeLa cells
Sequence (P04062 40-536): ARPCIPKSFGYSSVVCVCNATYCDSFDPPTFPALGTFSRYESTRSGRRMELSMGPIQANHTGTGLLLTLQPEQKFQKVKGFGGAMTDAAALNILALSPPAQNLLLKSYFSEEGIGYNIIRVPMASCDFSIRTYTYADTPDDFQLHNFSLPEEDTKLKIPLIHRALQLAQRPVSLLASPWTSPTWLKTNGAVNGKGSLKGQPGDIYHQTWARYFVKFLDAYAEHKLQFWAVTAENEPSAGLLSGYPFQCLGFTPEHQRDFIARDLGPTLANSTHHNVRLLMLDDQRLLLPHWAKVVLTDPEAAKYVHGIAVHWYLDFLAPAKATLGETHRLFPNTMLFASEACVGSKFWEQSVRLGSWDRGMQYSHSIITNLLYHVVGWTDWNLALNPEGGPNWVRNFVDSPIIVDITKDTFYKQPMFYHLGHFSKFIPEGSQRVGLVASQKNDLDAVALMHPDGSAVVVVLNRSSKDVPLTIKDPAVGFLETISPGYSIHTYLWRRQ
assayName: activation of GCase in a live cell PFB assay in HELA cells
Assay type: cell-based
conditions: activation of GCase, EC50 ranges
metric: EC50

Use these answered entries as a reference point.
{"columns": ["compound", "metric", "observed"],
 "data": [
  ["Cc1nc(N2CC3(CCN(c4ncc5cnn(CC(C)(F)F)c5n4)C3)C2)cc(C(F)(F)F)n1", "EC50", "10 to 50 µM"],
  ["O=C1N(c2cc(C(F)(F)F)ccn2)C(=O)C2(CCN(c3cnc4cnn(CC(F)F)c4n3)CC2)N1Cc1cc(F)cc(F)c1", "EC50", "< 10 µM"],
  ["FC(F)Cn1ncc2ncc(N3CCC4(CN(c5cnc(OCC(F)(F)F)nc5)C4)C3)nc21", "EC50", "10 to 50 µM"],
  ["O=C1N(Cc2cncc(Cl)c2)CCC12CCN(c1cnc3cnn(CC(F)F)c3n1)CC2", "EC50", "< 10 µM"]
]}

Lab note: measured EC50 of Cc1cc(N2CC3(CCN(c4cnc5c(C)nn(C6COC6)c5n4)CC3)CC2=O)nc(C(F)(F)F)n1 was < 10 µM

Lab note: measured EC50 of COc1nn(CC(F)F)c2nc(N3CCC4(CCN(c5cc(C)nc(C(F)(F)F)n5)C4)CC3)cnc12 was < 10 µM

Lab note: measured EC50 of O=C1CC2(CCN1c1ccc(C(F)(F)F)nc1)CN(c1cnc3cnn(CC(F)F)c3n1)C2 was 10 to 50 µM

Lab note: measured EC50 of FC(F)Cn1ncc2ncc(N3CCC4(CC3)CN(c3cncc(C(F)(F)F)c3)C4)nc21 was 10 to 50 µM

Lab note: measured EC50 of O=C1N(Cc2nc(C(F)(F)F)cs2)CCC12CCN(c1cnc3cnn(CC(F)F)c3n1)CC2 was 10 to 50 µM

Lab note: measured EC50 of FC(F)Cn1ncc2ncc(N3CCC4(CCN(c5cnc(C(F)(F)F)nc5)C4)C3)nc21 (stereo not shown) was 10 to 50 µM

Lab note: measured EC50 of O=C1N(c2nnc(C(F)(F)F)o2)CCC12CCN(c1cnc3cnn(CC(F)F)c3n1)CC2 was < 10 µM

Lab note: measured EC50 of FC(F)Cn1ncc2ncc(N3CCC4(CCN(c5ccc(C(F)(F)F)nc5)CC4)C3)nc21 was < 10 µM

Lab note: measured EC50 of O=C1N(c2nc(C(F)(F)F)c(F)cc2F)CCC12CCN(c1cnc3cnn(CC(F)F)c3n1)CC2 was 10 to 50 µM

Lab note: measured EC50 of FC(F)Cn1ncc2ncc(N3CCC4(CN(Cc5ccc(C(F)(F)F)cn5)C4)C3)nc21 was < 10 µM

Lab note: measured EC50 of O=C1CC2(CCN(c3cnc4cnn(CC(F)F)c4n3)CC2)CN1c1ccc(C(F)(F)F)cn1 was 10 to 50 µM

Lab note: measured EC50 of COc1nccc(CN2CC3(CCN(c4cnc5cnn(CC(F)F)c5n4)CC3)CC2=O)n1 was 50 to 100 µM

====

studyTarget: GCase (Homo sapiens)
Construct: endogenous in cells; host or cells: HeLa cells
assayName: activation of GCase in a live cell PFB assay in HELA cells
Format: cell-based
conditions: activation of GCase, EC50 ranges
Recorded measurements of EC50, one per entry

Use these answered entries as a reference point.
{"columns": ["molecule", "EC50"],
 "data": [
  ["O=C1N(Cc2ccnc(C(F)(F)F)n2)CCC12CCN(c1cnc3cnn(CC(F)F)c3n1)CC2 [Cmpd 844]", "< 10 µM"],
  ["FC(F)Cn1ncc2ncc(N3CCC4(CN(c5ccnc(OCC(F)(F)F)n5)C4)C3)nc21 [Cmpd 960]", "10 to 50 µM"]
]}

Lab note: measured EC50 of COc1nn(CC(F)F)c2nc(N3CCC4(CC3)CC(=O)N(c3ccc(C(F)(F)F)nc3)C4)cnc12 [Cmpd 837] was < 10 µM

Lab note: measured EC50 of Cc1nc(C(F)(F)F)ncc1N1CC2(CCN(c3cnc4cnn(CC(F)F)c4n3)C2)C1 [Cmpd 957] was 10 to 50 µM

====

Recorded measurements of EC50, one per entry
studyTarget: GCase (Homo sapiens, UniProt P04062)
Construct: endogenous in cells; host or cells: HeLa cells
assayName: activation of GCase in a live cell PFB assay in HELA cells
Type: cell-based
conditions: activation of GCase, EC50 ranges

Use these answered entries as a reference point.
{"columns": ["compound", "studyTarget", "metric", "observed"],
 "data": [
  ["Cc1nc(N2CC3(CCN(c4cnc5cnn(CC(F)(F)F)c5n4)C3)C2)cc(C(F)(F)F)n1 [Cmpd 499]", "GCase (Homo sapiens, UniProt P04062)", "EC50", "< 10 µM"],
  ["CCn1c(N2CCC3(CCN(c4cc(C)nc(C(F)(F)F)n4)C3)CC2)nc2c(cnn2CC(F)F)c1=O [Cmpd 1105]", "GCase (Homo sapiens, UniProt P04062)", "EC50", "< 10 µM"],
  ["O=C1CC2(CCN(c3cnc4cnn(CC(F)F)c4n3)CC2)CN1c1ccncc1C(F)(F)F [Cmpd 684]", "GCase (Homo sapiens, UniProt P04062)", "EC50", "< 10 µM"]
]}

Lab note: measured EC50 of Cc1nc(N2CC3(CCN(c4ncc5c(n4)n(C4COC4)c(=O)n5C)C3)C2)cc(C(F)(F)F)n1 [Cmpd 899] was < 10 µM

Lab note: measured EC50 of FC(F)Cn1ncc2ncc(N3CCC4(CCC(Oc5cccnc5C(F)(F)F)C4)CC3)nc21 (stereo not shown) [Compound 86] was < 10 µM

Lab note: measured EC50 of FC(F)Cn1ncc2ncc(N3CCC4(CCC4Oc4cccc(C(F)(F)F)n4)CC3)nc21 (stereo not shown) [Compound 83] was 10 to 50 µM

Lab note: measured EC50 of COCCN1C(=O)N(c2cc(C(F)(F)F)ccn2)C(=O)C12CCN(c1cnc3cnn(CC(F)F)c3n1)CC2 [Cmpd 713] was < 10 µM

Lab note: measured EC50 of Cc1nc(N2CCC3(CCN(c4ncc5c(C)nn(CC(F)F)c5n4)CC3)C2)cc(C(F)(F)F)n1 [Cmpd 576] was 10 to 50 µM

Lab note: measured EC50 of Cc1nc(C(F)F)cc(N2CC3(CCN(c4cnc5cnn(CC(F)F)c5n4)C3)C2)n1 [Cmpd 1139] was < 10 µM

====

studyTarget: GCase (Homo sapiens)
Construct: endogenous in cells; host or cells: HeLa cells
assayName: activation of GCase in a live cell PFB assay in HELA cells
Format: cell-based
conditions: activation of GCase, EC50 ranges
metric: EC50

{"columns": ["molecule", "EC50"],
 "data": [
  ["FC(F)Cn1ncc2ncc(N3CCC4(CCC(Oc5ccnc(C(F)(F)F)c5)C4)CC3)nc21 (centres unmarked)", "< 10 µM"],
  ["Cc1cc(C(F)(F)F)cnc1N1CC2(CCN(c3cnc4cnn(CC(F)F)c4n3)C2)C1", "50 to 100 µM"],
  ["Cc1nc(N2CCC3(CCN(c4cnc5cnn(CC(F)F)c5n4)CC3)C2=O)cc(C(F)(F)F)n1", "< 10 µM"],
  ["FC(F)(F)Cn1ncc2ncc(N3CCC4(CCN(c5ccnc(C(F)(F)F)c5)C4)C3)nc21 (centres unmarked)", "10 to 50 µM"],
  ["CCn1c(N2CCC3(CCN(c4cc(C(F)(F)F)nc(C)n4)C3)CC2)nc2c(cnn2C2COC2)c1=O", "50 to 100 µM"]
]}

Lab note: measured EC50 of FC(F)Cn1ncc2ncc(N3CCC4(CCN(c5cnc(C(F)(F)F)nc5)C4)CC3)nc21 was 10 to 50 µM

Lab note: measured EC50 of Cn1c(N2CCC3(CCN(c4ccnc(C(F)(F)F)n4)C3)CC2)nc2c(cnn2C2COC2)c1=O was < 10 µM

Lab note: measured EC50 of O=C1CC2(CC3CCC2CN3c2cnc3cnn(CC(F)F)c3n2)CN1c1ccc(C(F)(F)F)nc1 (centres unmarked) was 10 to 50 µM
